test: HoxA9-arrested leukemia cell differentiation promoters – flow cytometry, MLPCN library, primary screen (AID 624256); details: ER-HoxA9 myeloid progenitors, lysozyme-GFP differentiation, at 10 µM; measured here: differentiation confirmed by MAC1 staining, stronger effect = higher value;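 as to GFP+ MAC1+ double positive: cells exposed to compound for four days before flow analysis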
Among all 360,000 compounds or so, about 3,700 (1%) were called active. About 2% were inconclusive and are not listed. For the sample, actives were picked, then their nearest neighbours and some compounds at random.
Quick rule: GFP+ MAC1+ double positive of at least 0.7% means 1.0, below that means 0.0.

> print(dat)
                                   compound  assigned.label
1         CCN(CC)c1ccc2cc(C(=O)O)c(=O)oc2c1             1.0
2         Fc1cccc(Cl)c1COc1ccc(-c2nnco2)cc1             1.0
3  COc1ccccc1CNC(=O)C1CCN(c2nc3ccccc3o2)CC1             1.0
4  CCOC(=O)c1cc(-c2nnc(-c3cc(OC)c(OC)c(OC)c3)o2)c(C)nc1C             0.0
5  CN(C)CCCNC(=O)/C=C/c1ccc(OCc2c(F)cccc2Cl)cc1             0.0
6  Cc1noc(C)c1C(=O)N1CCC1(C)C(=O)NS(=O)(=O)c1ccc(C#N)cc1 (stereo unspecified)             1.0
7  COc1ccc(CCCNC(=O)C2Cc3c(-c4cccc(C(N)=O)c4)ccnc3O2)cc1 (stereo unspecified)             0.0
8       CCN(CC)c1ccc([N+](=O)[O-])cc1C(=O)O             1.0
9  CCOc1nc(-c2ccc(OC)cc2)ccc1-c1noc(-c2cc(OC)c(OC)c(OC)c2)n1             1.0

---

assay: HoxA9-arrested leukemia cell differentiation promoters – flow cytometry, MLPCN library, primary screen (AID 624256); conditions: ER-HoxA9 myeloid progenitors, lysozyme-GFP differentiation, at 10 µM; measured here: differentiation confirmed by MAC1 staining, stronger effect = higher value;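 as to GFP+ MAC1+ double positive: cells exposed to compound for four days before flow analysis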
In all, about 360,000 compounds went through this assay and about 3,700 (1%) were called active. About 2% were inconclusive and are not listed. The list comes from a sample in which actives are over-represented; it also holds close analogues and randomly drawn compounds.
Classify on GFP+ MAC1+ double positive using L = under 0.8%, M = from 0.8% up to 2%, H = 2% and over

> print(dat)
                                    compound  assigned.label
 1  Cc1ccc(CSCC(=O)N(C)CC(=O)Nc2cccc(F)c2)cc1               M
 2  O=C(N[C@@H](Cc1ccccc1)C(=O)OCc1ccccc1)c1nc[nH]c1C(=O)N[C@@H](Cc1ccccc1)C(=O)OCc1ccccc1               L
 3  COc1ccc(S(=O)(=O)N[C@@H]2C=C[C@@H](CC(=O)N3CCc4ccccc4C3)O[C@@H]2CO)cc1               M
 4  COc1ccc(CCNC(=O)/C(C#N)=C2\N=C(NC(=O)c3cccs3)c3ccccc32)cc1               M
 5  CCc1nc2oc3ccccc3c(=O)c2c(=O)n1Cc1ccc(OC)cc1               H
 6  COc1ccc(N2CCN(c3ccc([N+](=O)[O-])nc3)CC2)cc1               M
 7  COC(=O)C1=CN(c2c(C)cc(C)cc2C)C(N)=C(C#N)C1c1cccc(F)c1 (centres undefined)               M
 8  CCOP(=O)(OCC)C(Cc1ccccc1)N=C(c1ccccc1)c1ccccc1 (centres undefined)               M
 9  COc1ccc(CN(Cc2ccc(OC)cc2)C(=O)c2cccs2)cc1               L
10        O=c1c2ccccc2oc2nc3n(c(=O)c12)CCCS3               H
11          COc1cc(OC)cc(C(=O)NCCCn2ccnc2)c1               L
12  CC1(C(=O)NS(=O)(=O)c2ccccc2)CCN1C(=O)c1ccccc1 (centres undefined)               M
13  COC(=O)C(C)NC(=O)COc1ccc2ccccc2c1 (centres undefined)               M
14  CC(=O)Nc1cc(-c2ccccc2N(C)C)cn2c(-c3ccc(F)c(Cl)c3)cnc12               M
15  CCOC(=O)[C@]12CCCC=C1N(CCC1=CCCCC1)C(=O)[C@H](CC(=O)N1CCCCC1)C2               H
16  Cc1cc(O)ccc1-c1cc(C(=O)NCc2cc(C(F)(F)F)cc(C(F)(F)F)c2)[nH]n1               L
17  CCOC(=O)N1CCN(C(=O)C2CC(c3ccc(F)cc3)=NO2)CC1 (centres undefined)               M
18                  Oc1ccc2ccc3cccc[n+]3c2c1               M
19            COc1ccc(Cn2c(=O)oc3ccccc32)cc1               L
20  CCOc1ccc(CCN2C(=S)N([C@@H](CC(C)C)CN3CCC[C@@H]3CN3C(=S)NC[C@@H]3Cc3ccc(O)cc3)C[C@@H]2CC(C)C)cc1               L
21  Cc1cc(C)c(S(=O)(=O)NN=C2c3ccccc3[C@H]3Cc4csc[n+]4[C@@H]23)c(C)c1               M
22  CC(C)(C)N1C(=O)c2c(C(=O)OCc3ccccc3)[nH]c(-c3ccccc3)c2C1=O               M
23           CCOc1ncccc1C(=O)NCCc1ccc(OC)cc1               L
24  CCC(C)CN1C(=O)CSCC1(C)C(=O)NCc1ccccc1 (centres undefined)               M
25  CC(=O)C[C@@H]1OC[C@H](CO)N1S(=O)(=O)c1ccc(C)cc1               H
26  O=C(c1ccco1)N1CCN(C(=O)C2CC(c3ccc(Cl)c(Cl)c3)=NO2)CC1 (centres undefined)               M
27  CC(C)(C)NC(=O)C(CCc1ccccc1)n1c(=O)c(-c2ccccc2)nc2ccccc21 (centres undefined)               H
28  c1ccc2c(CCN3CCNC[C@H]3Cc3cccc4ccccc34)cccc2c1               H
29  COc1cccc(-c2nn(-c3ccccc3)cc2/C=C(\C#N)C(=O)NCCCn2ccnc2)c1               L
30  Cc1ccc(S(=O)(=O)N2CC[C@H]3[C@@H](C2)C(=O)C[C@@H](c2ccccc2)N3S(=O)(=O)c2ccc(C)cc2)cc1               H
31  Cc1ccc2c(c1)c1ncn(Cc3ccc(F)cc3)c(=O)c1n2C               H
32   CCN(CC)C(=O)CSC(Nc1cccc(F)c1)=C(C#N)C#N               H
33  Nc1nc2c(ncn2[C@@H]2O[C@H](CNS(=O)(=O)N3CCc4ccccc4C3)[C@@H](O)[C@H]2O)c(=O)[nH]1               L
34  CCOc1ccc(CCN2C(=O)C(=O)N([C@@H](Cc3ccc(O)cc3)CN3CCC[C@H]3CN3C(=O)C(=O)NC[C@@H]3CC(C)C)C[C@@H]2Cc2ccccc2)cc1               M

---

assay: HoxA9-arrested leukemia cell differentiation promoters – flow cytometry, MLPCN library, primary screen (AID 624256); conditions: ER-HoxA9 myeloid progenitors, lysozyme-GFP differentiation, at 10 µM
In all, about 360,000 compounds went through this assay and about 3,700 (1%) were called active. Another 2% or so got no clear call; they are omitted.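 Rule for the calls: active = normalized GFP-positive differentiation at or above the plate's own cutoff, the solvent-only control mean plus 3 SD; inconclusive = no clear call, values can overlap the other calls; inactive = the rest.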 Shown is part of a subset that was picked to be rich in actives.
Classes used: active, inactive

> print(dat)
                                    compound  assigned.label
 1  C=CCC[C@@H](CCCCC)OC(=O)/C=C/[C@@H](O)[C@H](O)C[C@H](O)CC=C        inactive
 2           c1ccc2c(c1)CSc1sccc1C2=C1CCNCC1          active
 3  COc1ccc(C(c2nnnn2C2CCCC2)N2CCN(C/C=C/c3ccccc3)CC2)cc1 (stereo unspecified)        inactive
 4  O=C(OC1CC2CC1[C@H]1CCCCN1C2=O)N1CCOCC1 (stereo partly specified)        inactive
 5  Cc1cccc(-c2cnc(C(O)c3ccc4ccccc4c3)[nH]2)c1 (stereo unspecified)        inactive
 6  COCCn1c(=S)[nH]c2cc(C(=O)NCCc3ccc(OC)c(OC)c3)ccc2c1=O        inactive
 7  COc1ccc(-c2ccc(C(=O)NCCN3CCOCC3)c3occc23)c(C)c1        inactive
 8  Cn1c(C(=O)NCCCN2CCN(c3cccc(Cl)c3)CC2)cc2c(=O)n(C)c3ccccc3c21          active
 9  Cc1ccc(-c2ccnc3[nH]n(-c4ccccc4)c(=O)c23)cc1          active
10  CC(NC(=O)COC(=O)CCC(=O)c1ccc(Cl)cc1)c1ccccc1 (stereo unspecified)        inactive
11  O=C(NC(c1ccc(-c2ccccc2)cc1)c1cnccn1)C1CCN(CCOc2ccc(Cl)cc2Cl)CC1 (stereo unspecified)        inactive
12  COc1ccc(Cn2c(=S)[nH]c3cc(C(=O)N4CCCCC4)ccc3c2=O)cc1        inactive
13  Cn1c(Nc2ccc(F)cc2)nc2cc(-c3ccsc3)sc2c1=O        inactive
14  CCOC(=O)CNC(=O)c1nn(-c2cccc(OC)c2)c(=O)c2ccccc12        inactive
15  COC(=O)C[C@@H]1C=C[C@@H](NS(=O)(=O)c2cccc(OC)c2)[C@@H](CO)O1        inactive
16  NC(Cc1ccc(F)cc1)c1csc(Nc2nncc3ccccc23)n1 (stereo unspecified)        inactive
17        Cc1cc(=O)oc2c1c(C)nn2-c1ccc(Cl)cc1        inactive
18    O=c1c2c(-c3ccccc3)ccnc2[nH]n1-c1ccccc1        inactive
19  CC(NC(=O)COC(=O)c1ccc(Cl)cc1O)c1ccc(F)cc1 (stereo unspecified)          active
20  NCCCNC(=S)NCCCN(Cc1ccc(Cl)cc1)c1ccc(Br)cn1        inactive
21  O=C(Cc1csc(Nc2nc(=S)[nH]c3ccccc23)n1)NCCCN1CCN(c2cccc(Cl)c2)CC1        inactive
